Kindly state RP-LC retention time for each of the entries shown.
experimental.protocol: gradient 5% acetonitrile 3 min, to 50% in 2 min, to 85% in 15 min, held 3 min, 100 µL/min
condition.summary: column: Zorbax Extend-C18 2.1 x 50 mm; eluents: water / acetonitrile, 0.1% formic acid
# number then unit; no other words

INSERT INTO measurements (compound, result) VALUES
  ('O=C1NC2(CCN(C(=O)c3ccccc3)CC2)Nc2cc(Cl)ccc21', '729 s');

Kindly give each listed record's RP-LC retention time.
1. COc1cccc(NC(=O)N2CCCC2c2nc(-c3ccccc3OC)no2)c1 (stereo not given)
2. CCOC(=O)c1csc(NC(=O)c2ccccc2Br)n1
3. Cc1cccc(-c2noc(Cn3nc(-c4ccc(F)cc4)ccc3=O)n2)c1
4. CCS(=O)(=O)Nc1ccc(C2(C(=O)NCc3ccc(C)cc3)CCC2)cc1

["843 s", "780 s", "1060 s", "863 s"]

For each listed entry, give its RP-LC retention time.
1. O=C(c1cccs1)N1CC(C(=O)N2CCN(c3ccccc3Cl)CC2)C1
2. CCOc1ccc(-c2[nH]ncc2CNS(=O)(=O)Cc2cc(F)cc(F)c2)cc1

788 s
845 s

For every record below, what is its RP-LC retention time?
1. CCOc1ccc(-c2csc(NC(=O)CCCOc3ccccc3C)n2)cc1
2. CCOc1ccc(S(=O)(=O)N2CCCN(c3ccc(=O)n(-c4ccccc4)n3)CC2)cc1
3. Cc1nnc(-c2cc(C)n(CC(=O)Nc3ccc(F)cc3)c2C)o1
4. COc1cccc2sc(NC(=O)Cc3ccc(Cl)s3)nc12

1: 1240 s; 2: 892 s; 3: 754 s; 4: 923 s
